tested_system: p38 MAP kinase (unphosphorylated p38-alpha kinase) (Homo sapiens)
Sequence (Q16539 whole entry): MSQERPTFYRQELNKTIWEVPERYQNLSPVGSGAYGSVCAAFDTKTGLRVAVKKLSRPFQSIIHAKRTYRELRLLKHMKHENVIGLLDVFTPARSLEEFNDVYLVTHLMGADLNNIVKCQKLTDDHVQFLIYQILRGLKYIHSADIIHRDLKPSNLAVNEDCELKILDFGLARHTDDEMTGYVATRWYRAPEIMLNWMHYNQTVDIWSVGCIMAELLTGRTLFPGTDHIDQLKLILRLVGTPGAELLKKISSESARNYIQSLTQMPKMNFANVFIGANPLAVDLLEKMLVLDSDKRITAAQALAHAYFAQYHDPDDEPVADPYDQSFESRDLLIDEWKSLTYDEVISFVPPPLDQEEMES
experiment_summary: P38 MAP kinase binding assay (fluorescence competition with SKF 86002 probe)
conditions: time-dependent if IC50 values decrease with the reaction time (more than two-fold in four hours)
measured_metric: Time-dependent

>>> result("CC(C)(C)c1cc(NC(=O)Nc2cccc3ccccc23)n(-c2cccc(CC(=O)N3CCOCC3)c2)n1")
"Yes"
>>> result("CC(C)(C)c1cc(NC(=O)Nc2cccc3ccccc23)n(-c2ccc(CN)cc2)n1")
"No"
>>> result("CC1(C(=O)O)CC2(C)CC(C)(C1)C(=O)N(Cc1cccc(-n3nc(C(C)(C)C)cc3NC(=O)Nc3ccc(Cl)cc3)c1)C2=O (stereo not shown)")
"No"
>>> result("CC1(C(=O)O)CC2(C)CC(C)(C1)C(=O)N(Cc1cccc(-n3nc(C(C)(C)C)cc3NC(=O)Nc3cccc4ccccc34)c1)C2=O (stereo not shown)")
"No"
